Assay notes: In vitro cytotoxicity assay (MTT)
Assay type: cell-based, human
Condition set: human, HEK293T cells, MTT, 48 h; read-out: Cytotoxicity HEK293T IC50
Attribute measured: IC50 at 48 h

Oc1ccccc1Oc1ccccc1O [Compound 30, 2, 2′-oxydiphenol, reference compound]	> 198 µM

From here, focus on the item given below.
Quick note, IC50 at 48 h for COc1cccc2c1C(=O)c1c(O)c3c(c(O)c1C2=O)C[C@@](O)(C(=O)CO)C[C@@H]3O[C@H]1C[C@H](N)[C@H](O)[C@H](C)O1 [Doxorubicin, reference compound] landed at 0.22 µM
